Tested on: m-IMCD3 cells
Assay: Inhibition of PGE2-stimulated in vitro cyst formation in m-IMCD3 cells
Type: cell-based, mouse
Settings: Mus musculus, mIMCD3, 144 h, 10 μM; mean cyst area, 100% for (DMSO + PGE2) and 0% for DMSO control; 6 days of culture; read-out: % Cyst area after incubation with 10 μM test compound
Procedure: HEK 293 and MDCK cells (Public Health England, Cell Culture Collections) were maintained in Dulbecco's Modified Eagle's Medium (DMEM) supplemented with 10% (v/v) fetal bovine serum (FBS) (Seralab), 2 mM L-glutamine and 100 U/mL penicillin streptomycin cocktail (ThermoFisher); termed complete media. Clonal HEK 293 cell lines were maintained in complete media supplemented with 0.6 mg/ml G418 (Enzo Life Sciences). […]
result.type: activity at 10 µM (%)
All answers are understood in %, so give the number only.

Past entries and their recorded results:
CN1CC2CCC(C1)N2c1cc2n(n1)CCN(C(=O)NC1CCC(F)(F)CC1)C2: -2
O=C(CC1CCC(F)(F)C1)N1CCc2nc(N3C4CCC3CNC4)sc2C1 (stereo not drawn): -4
CN1CC2CCC(C1)N2c1cc2n(n1)CCN(C(=O)CC1CCC(F)(F)CC1)C2: -1
Cc1cc(CC(=O)N2CCc3nc(N4C5CCC4CNC5)sc3C2)cc(C)n1: 31
O=C(CC1CCOCC1)N1CCc2nc(N3C4CCC3CNC4)sc2C1: 13
Cc1cc(F)ccc1OCC(=O)N1CCc2nc(N3C4CCC3CNC4)sc2C1: 17

INPUT: What value of activity at 10 µM has been reported for the following molecule? O=C(NCc1ccc(C(F)(F)F)cc1)N1CCc2nc(N3C4CCC3CNC4)sc2C1
OUTPUT: -6

INPUT: What value of activity at 10 µM has been reported for the following molecule? CC(C)OCC(=O)N1CCc2nc(N3C4CCC3CNC4)sc2C1
OUTPUT: 12

INPUT: What value of activity at 10 µM has been reported for the following molecule? O=C(Nc1ccccc1)N1CCc2nc(N3C4CCC3CNC4)sc2C1
OUTPUT: -3

INPUT: What value of activity at 10 µM has been reported for the following molecule? O=C(CC1CCCC1)N1CCc2nc(N3CCN[C@H](CO)C3)sc2C1
OUTPUT: 55

INPUT: What value of activity at 10 µM has been reported for the following molecule? CC(C)(C)C(=O)N1CCc2nc(N3C4CCC3CNC4)sc2C1
OUTPUT: -2

INPUT: What value of activity at 10 µM has been reported for the following molecule? CC1(C)CCCC1C(=O)N1CCc2nc(N3C4CCC3CNC4)sc2C1 (stereo not drawn)
OUTPUT: -2

INPUT: What value of activity at 10 µM has been reported for the following molecule? CN(C(=O)N1CCc2nc(N3C4CCC3CNC4)sc2C1)C1CCCC1
OUTPUT: 1

INPUT: What value of activity at 10 µM has been reported for the following molecule? O=C(CC1CCC(F)(F)CC1)N1Cc2nc(N3C4CCC3CNC4)sc2C1
OUTPUT: -4

INPUT: What value of activity at 10 µM has been reported for the following molecule? CC1(NC(=O)N2CCc3nc(N4C5CCC4CNC5)sc3C2)CCCC1
OUTPUT: -11

INPUT: What value of activity at 10 µM has been reported for the following molecule? O=C(CC12CC(C1)C2)N1CCc2nc(N3C4CCC3CNC4)sc2C1
OUTPUT: -2

INPUT: What value of activity at 10 µM has been reported for the following molecule? O=C(CC1CCC1)N1CCc2nc(N3C4CCC3CNC4)sc2C1
OUTPUT: -3

INPUT: What value of activity at 10 µM has been reported for the following molecule? O=C(N1CCc2nc(N3C4CCC3CNC4)sc2C1)C1(F)CCCC1
OUTPUT: 5

INPUT: What value of activity at 10 µM has been reported for the following molecule? N#CC(C(=O)N1CCc2nc(N3C4CCC3CNC4)sc2C1)C1CCCC1 (stereo not drawn)
OUTPUT: 4

INPUT: What value of activity at 10 µM has been reported for the following molecule? CN1CC2CCC(C1)N2c1nc2c(s1)CN(C(=O)CC1CCCC1)CC2
OUTPUT: -4

INPUT: What value of activity at 10 µM has been reported for the following molecule? CN1CC2CCC(C1)N2c1nc2c(s1)CN(C(=O)COc1ccnc(F)c1)CC2
OUTPUT: -2

INPUT: What value of activity at 10 µM has been reported for the following molecule? CN1CC2CCC(C1)N2c1nc2c(s1)CN(C(=O)CC1CCC(F)(F)CC1)CC2(C)C
OUTPUT: -1

INPUT: What value of activity at 10 µM has been reported for the following molecule? CN1CC2CCC(C1)N2c1nc2c(s1)CN(C(=O)NC1CCC(F)(F)CC1)CC2
OUTPUT: 1

INPUT: What value of activity at 10 µM has been reported for the following molecule? CC1(C)CN(C(=O)CC2CCC(F)(F)CC2)Cc2sc(N3C4CCC3CNC4)nc21
OUTPUT: 3
